# Tgt: human cannabinoid CB1 receptor (Homo sapiens)
# Construct: purchased Perkin Elmer Inc., Singapore Pte; Ltd. RBHCB1M400UA; host or cells: HEK293-EBNA cell membranes (overexpressing)
# Sequence (P21554 whole entry): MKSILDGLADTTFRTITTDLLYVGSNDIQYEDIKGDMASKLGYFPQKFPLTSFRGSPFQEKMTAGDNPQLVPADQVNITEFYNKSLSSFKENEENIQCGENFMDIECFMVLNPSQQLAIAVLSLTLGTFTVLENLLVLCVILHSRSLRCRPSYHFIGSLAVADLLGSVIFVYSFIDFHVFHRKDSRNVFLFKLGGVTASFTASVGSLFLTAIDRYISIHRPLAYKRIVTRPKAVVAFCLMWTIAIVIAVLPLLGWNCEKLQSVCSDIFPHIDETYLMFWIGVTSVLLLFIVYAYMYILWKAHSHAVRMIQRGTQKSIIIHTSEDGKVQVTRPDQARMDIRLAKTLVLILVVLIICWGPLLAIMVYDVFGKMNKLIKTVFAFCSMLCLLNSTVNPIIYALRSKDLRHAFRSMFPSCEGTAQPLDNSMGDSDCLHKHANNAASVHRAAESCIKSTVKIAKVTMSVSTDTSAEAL
# Assay: biochemical
# Format: binding
Measurement Label: IC50

# IC50 lookup, item O=C(c1cccc2ccccc12)n1c(-c2ccon2)nc2ccc(Cl)cc21 > 10 µM

* * *

# Tgt: human recombinant cannabinoid CB2 receptor (Homo sapiens, UniProt P34972)
# Construct: Ltd. RBXCB2M400UA
# Sequence (P34972 whole entry): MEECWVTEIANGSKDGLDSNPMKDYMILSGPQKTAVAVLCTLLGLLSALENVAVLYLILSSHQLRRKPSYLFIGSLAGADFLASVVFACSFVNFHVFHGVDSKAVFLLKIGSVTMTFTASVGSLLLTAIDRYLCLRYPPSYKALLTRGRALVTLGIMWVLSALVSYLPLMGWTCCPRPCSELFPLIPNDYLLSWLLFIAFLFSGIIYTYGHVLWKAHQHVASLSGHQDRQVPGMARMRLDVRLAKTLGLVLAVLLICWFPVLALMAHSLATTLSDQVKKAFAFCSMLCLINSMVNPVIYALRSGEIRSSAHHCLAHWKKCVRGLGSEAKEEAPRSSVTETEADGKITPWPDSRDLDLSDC
# Assay: CB2 radioligand displacement binding assay ([3H]CP-55940)
# Condition Summary: [3H]CP-55940 0.5 nM, hCB2 HEK293-EBNA membranes, mean ± SEM n = 3
Measurement Label: IC50

Quick one: IC50 of Cc1cc(-c2nc3cc(F)ccc3n2C(=O)c2cccc3ccccc23)no1 ? > 10 µM

Could you tell me which IC50 is on file for O=C(c1cccc2ccccc12)n1c(-c2ccco2)nc2ccc(F)cc21 ? > 10 µM

Which measured IC50 value corresponds to Cc1cc(-c2nc3ccc(Cl)cc3n2C(=O)c2cccc3ccccc23)no1 ? > 10 µM
